# protocol: chemical genetic growth profiling, strain panel (AID 1159580);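 also: tested at 20 µM; growth read once vehicle control cultures reached saturation at 30 °C; 1 = growth at the plate median or of vehicle wells; lower values mean less growth of the strain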
# run conditions: S. cerevisiae deletion strains, growth OD, locus YDR388W
Screen size: about 5,500 compounds; about 2,000 (36%) were called active. About 18% were inconclusive and are not listed. Rule as the data show it: active = normalized growth mostly below about 0.91 (no sharp cut-off); inconclusive = no clear call, values can overlap the other calls; inactive = mostly above about 0.92. The list shows a part of the results.
Classes used: 1 = active, 0 = inactive

| molecule | class |
| --- | --- |
| Cn1c(=O)c2c(ncn2C)n(C)c1=O | 0 |
| CC1(C)CC23C(=O)CCC(O)C2(C)CCC13 (stereo not drawn) | 0 |
| COc1cc2cccc(OC)c(=O)c2c(OC)c1OC | 0 |
| C[N+]12CCC(CC1)C(OC(=O)C(O)(c1ccccc1)c1ccccc1)C2 (stereo not drawn) | 0 |
| CC(=O)CCCCn1c(=O)c2c(ncn2C)n(C)c1=O | 0 |
| O=c1c(O)cccc2cc(O)c(O)c(O)c12 | 1 |
| O=C1C(=O)c2ccccc2C(O)=C1C1CCC(c2ccc(Cl)cc2)CC1 (stereo not drawn) | 0 |
| CON | 0 |
| CC(=O)OC1CCC23CC1(C)CCC2C(C)(C)CC3OC(C)=O (stereo not drawn) | 0 |
| C/C(=C\CO)CC[C@H](C)CCC[C@H](C)CCCC(C)C | 1 |
| CC(C)=CCC/C(C)=C/CO | 0 |
| CC(=O)O[C@@H]1C2CC[C@@H]3C1(C[C@@H](O)[C@@]1(O)[C@@H](C[C@H](O)C1(C)C)[C@]3(C)O)C[C@@]2(C)O (stereo partly drawn) | 0 |
| COc1cc(O)ccc1C(C)=O | 0 |

----------
# protocol: chemical genetic growth profiling, strain panel (AID 1159580);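 also: tested at 20 µM; growth read once vehicle control cultures reached saturation at 30 °C; 1 = growth at the plate median or of vehicle wells; lower values mean less growth of the strain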
# run conditions: S. cerevisiae deletion strains, growth OD, locus YPR167C, strain met16, active compounds read low
Hit rate of the full screen: of about 5,500 compounds, about 2,000 (36%) were called active. Another 18% or so got no clear call; they are omitted. Some of the results follow.
result type: normalized growth

| molecule | observed value |
| --- | --- |
| COc1cc2c(cc1OC)C(C)NCC2 (stereo not given) | 0.964 |
| CCC[C@@H]1C[C@@H](C(=O)N[C@H]([C@H]2O[C@H](SC)[C@H](O)[C@@H](O)[C@H]2O)[C@H](C)O)N(C)C1 | 0.993 |
| CC(C)c1cc2c(c(O)c1O)[C@@]1(C(=O)O)CCCC(C)(C)C1CC2 (stereo not given in full) | 1 |
| COC(=O)CC1C(C)(C)C(=O)C2CC3(O)C4=CC(=O)OC(c5ccoc5)C4(C)CCC3C1(C)C2=O (stereo not given) | 0.985 |
| COC(=O)C[C@H]1C(C)(C)[C@@H](OC(C)=O)[C@@H]2CC3=C4CC(=O)O[C@@H](c5ccoc5)[C@]4(C)CCC3[C@@]1(C)C2=O (stereo not given in full) | 0.995 |

----------
In this section, each of the compounds is paired with its reported normalized growth.
# protocol: chemical genetic growth profiling, strain panel (AID 1159580);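 also: tested at 20 µM; growth read once vehicle control cultures reached saturation at 30 °C; 1 = growth at the plate median or of vehicle wells; lower values mean less growth of the strain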
# run conditions: S. cerevisiae deletion strains, growth OD, locus YGR078C, strain PAC10, active compounds read low
In all, about 5,500 compounds went through this assay and about 2,000 (36%) were called active. Not shown: some 18% with an inconclusive outcome. The list shows a part of the results.

| compound | normalized growth |
| --- | --- |
| Cc1cc(NC(=O)Nc2cccc(C(F)(F)F)c2)n(C)n1 | 1.01 |
| COc1ccccc1OCC(O)COC(N)=O (centres undefined) | 1 |
| N#CCC(=O)N(Cc1ccccc1F)C(=O)NC1CCCCC1 | 0.994 |
| C/C(=N/O)c1ccn(S(=O)(=O)c2ccc(Cl)cc2)c1 | 1.01 |
| COc1cc([C@@H]2c3cc4c(cc3[C@H](O)C3COC(=O)[C@@H]32)OCO4)cc(OC)c1OC (some centres undefined) | 1.02 |
| C=C[C@H]1CN2CC[C@H]1C[C@H]2[C@H](O)c1ccnc2ccccc12 | 1.01 |
| Clc1cc(Cl)cc(Br)c1 | 1.01 |
| Cc1ccc(NC(=S)C(C#N)C(=O)N2CCCC2)c(C)c1 (centres undefined) | 0.988 |
| CC(=O)NS(=O)(=O)c1ccc(N)cc1 | 0.998 |
